# protocol-notes: in vivo
# Design: species or system BALB/C nu/nu mice
# stated-conditions: BALB/C nu/nu, mouse, iv, 40 pmol, total radioactivity, Carcass (whole body) uptake
test-readout: tissue uptake dose at 4 h (%ID)
Note: unit %ID is implicit; provide only the numeric part.

## Task Please supply the value of reported tissue uptake dose at 4 h for the item CC(C)C[C@H](NC(=O)C[C@H](O)[C@H](CC(C)C)NC(=O)[C@H](Cc1c[nH]cn1)NC(=O)CN(C)C(=O)[C@@H](NC(=O)[C@H](C)NC(=O)[C@H](Cc1c[nH]c2ccccc12)NC(=O)[C@H](CCC(N)=O)NC(=O)[C@@H](Cc1ccccc1)NC(=O)CN1CCC(NC(=O)COCCOCCNC(=O)CCC(C(=O)O)N2CCN(CC(=O)O)CCN(CC(=O)O)CCN(CC(=O)O)CC2)CC1)C(C)C)C(N)=O (stereo partly shown) [[^111In]In-AU-RM26-M2, metal not drawn]
## Result 0.8
